Exercise: state measured Ratio IC50 for each of the molecules provided.
test system: Trypanosoma brucei brucei; assay: Potency index, ratio of IC50 for QND to IC50 for test compound against Trypanosoma brucei brucei Lister 427 bloodstream forms by microtiter plate based assay; assay type: functional
Lab note: record the figure alone, no unit after it.

# query: Ratio IC50 of entry C=C[C@H]1CN2CC[C@H]1C[C@@H]2[C@@H](O)c1cc(CC[C@@H](C)[C@H]2CC[C@H]3[C@@H]4[C@H](OC(C)=O)[C@H](OC(C)=O)[C@@H]5C[C@H](OC(C)=O)CC[C@]5(C)[C@H]4CC[C@]23C)nc2ccc(OC)cc12
46.2

Ratio IC50 lookup needed for C=C[C@H]1CN2CC[C@H]1C[C@@H]2[C@@H](O)c1cc(CC[C@@H](C)[C@H]2CC[C@H]3[C@@H]4CC[C@@H]5C[C@H](OC(C)=O)CC[C@]5(C)[C@H]4C[C@H](OC(C)=O)[C@]23C)nc2ccc(OC)cc12 , thanks.
37.5
